All values here come from paper PMC9482650.

target or test system: GRID2IP_2, A4D2P6
Sequence (A4D2P6 272-370): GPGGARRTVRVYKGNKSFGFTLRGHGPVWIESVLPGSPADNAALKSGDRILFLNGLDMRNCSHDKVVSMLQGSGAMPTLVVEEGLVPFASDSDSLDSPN
procedure summary: holdup assay
Parameters: key: below the threshold = too weak to quantify, mostly under pKd 3.1 to 4
particulars: plain residues with an end cap or a label only (N-terminal biotin on a linker: ado-ado)
The threshold is inclusive: pKd of exactly 4 counts as Condition met; values below receive Condition not met.

Request: Entry NKSEPFLTWL [WWTR1, Q9GZV5] : is its pKd no less than 4?
Response: Condition met

Request: Check this binder for pKd at or above 4: QKNKDREYYV [NRXN3, Q9HDB5]
Response: Condition not met

Request: Is it the case that KSRPENGTVC [TMEM178B, H3BS89] has pKd reaching or exceeding 4?
Response: Condition not met

Request: Could you please find out whether PSVYSRSQYV [CLDN8, P56748] has pKd that meets 4 or exceeds it?
Response: Condition not met

Request: Determine whether measured pKd meets or exceeds 4 for EAVTVESTSL [SLC22A11, Q9NSA0]
Response: Condition met

Request: Check if pKd >= 4 (inclusive). Item: YAEKRMLTEV [KCNA6, P17658]
Response: Condition not met

Request: Please tell me: is the binder THHRKIHTRV [ZNF599, Q96NL3] at or over 4 in terms of pKd?
Response: Condition not met

Request: Exam item: decide whether the reported pKd for IGHEDLETAV [DGKI, O75912] is at least 4.
Response: Condition not met

Request: Reported pKd at or above 4? IKLETKKTKL [SLC15A2, Q16348]
Response: Condition met

Request: Confirm if pKd reported for the binder GSQSQVETEA [FKBP4, Q02790] is 4 or above.
Response: Condition not met

Request: API: above_or_equal(metric=pKd, cutoff=4) for item NNMAFETTHF [SLC5A12, Q1EHB4]
Response: Condition not met

Request: Tell me whether pKd is at least 4 here: AKADAQESRL [PLCB2, Q00722]
Response: Condition not met

Request: Kindly determine if pKd recorded for KKTPVSRSHL [SLC22A3, O75751] is above or exactly 4.
Response: Condition met
